System: biotinyl-Trp-oxazolone
Assay: self-aminoacylation, catalytic enhancement (BWO) (fold over background); higher = more active; k-Seq, kA / k0A0; sequences stand for … in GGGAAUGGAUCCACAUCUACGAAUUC…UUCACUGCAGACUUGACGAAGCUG
Variants at the floor of the assay were thinned out.
The label depends only on self-aminoacylation: True if it is at least 2, False if it is smaller.

Example results:
- Seq: "AUUCACCUAGGUCAUUGGGUU [Fam2.2 aminoacylation ribozyme variant]"
  Group label: "False"
- Seq: "CUACUUCAAAUAAUCGAUCUG [Fam1A.1 aminoacylation ribozyme variant]"
  Group label: "False"
- Seq: "CCACACUUCAUGCAAGCGGUC [Fam1B.1 aminoacylation ribozyme variant]"
  Group label: "False"
- Seq: "CCACACUUCGAGCAAUCGGUA [Fam1B.1 aminoacylation ribozyme variant]"
  Group label: "False"
- Seq: "AUUACCCUGUGCAUCGAGUGA [Fam2.1 aminoacylation ribozyme variant]"
  Group label: "True"
- Seq: "AAGUUUACUACUAGUCGCAAG [Fam3.1 aminoacylation ribozyme variant]"
  Group label: "False"

Task: Check this sequence for self-aminoacylation at or above 2: AAUCACCUAGGUCAUCGGGCG [Fam2.2 aminoacylation ribozyme variant]
Result: True

Task: Input AUUACCCUGGUCAUCGAGUCG [Fam2.1 aminoacylation ribozyme variant]
Result: False

Task: Please give the result for CUACUUCAAACAUUCGGUCUC [Fam1A.1 aminoacylation ribozyme variant] too.
Result: False

Task: How about CGACUUCAAACAAUCGGUGUG [Fam1A.1 aminoacylation ribozyme variant] ?
Result: True

Task: # repeat for CCGCACUUCAAGCAAUCGGUG [Fam1B.1 aminoacylation ribozyme variant]
Result: True
